Measured pIC50 values are reported for all entries that follow.
Assay system: pseudo-kinase domain (JH2, amino-acids 536-812 with 3 surface mutations W659A, W777A, F794H) of human V617F mutant JAK2 (Homo sapiens, UniProt O60674, F794H/V617F/W659A/W777A)
Construct: pseudo-kinase domain (JH2, amino-acids 536-812 with 3 surface mutations W659A, W777A, F794H); His (C); Avi (biotinylated) (C)
Sequence (O60674 536-812 V617F/W659A/W777A/F794H): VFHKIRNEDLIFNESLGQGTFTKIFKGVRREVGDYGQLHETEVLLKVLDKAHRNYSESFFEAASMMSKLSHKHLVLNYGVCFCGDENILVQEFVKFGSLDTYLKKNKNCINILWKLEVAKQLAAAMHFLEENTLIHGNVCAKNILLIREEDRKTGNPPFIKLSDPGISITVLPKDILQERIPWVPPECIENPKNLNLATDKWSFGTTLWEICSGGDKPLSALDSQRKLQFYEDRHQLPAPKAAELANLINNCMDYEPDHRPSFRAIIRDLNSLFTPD
Protocol text: JAK2 LanthaScreen JH2-V617F Binding Assay
Setup conditions: JAK2 JH2-V617F (0.26 nM), 50 nM Fluorescent JAK2-JH2 Tracer, 1 hour at 25° C.; read-out: JH2 BIND V617F
pIC50: −log10 of the molar value.

Provide measured pIC50 value, entry: COc1ccc(-c2[nH]c3ncc4c(c3c2-c2ccc3c(cnn3C)c2)n(C2CCOCC2)c(=O)n4C)cn1
≥ 8.00

State its pIC50: Cn1c(=O)n(C2CCCC2)c2c3c(-c4ccc(C5(C#N)CC5)cc4)c(-c4ccc(CN5CCC(S(C)(=O)=O)CC5)cc4)[nH]c3ncc21
≥ 8.00

Indicate its recorded pIC50; the compound in question is CC(C)n1c(=O)n(C)c2cnc3[nH]c(-c4ccc(CN5CCC(S(C)(=O)=O)CC5)cc4)c(-c4cnn(Cc5ccc(C(=O)O)cc5)c4)c3c21
≥ 8.00

====

Assay system: pseudo-kinase domain (JH2, amino-acids 536-812 with 3 surface mutations W659A, W777A, F794H) of human Wild Type JAK2 (Homo sapiens, UniProt O60674, F794H/W659A/W777A)
Construct: pseudo-kinase domain (JH2, amino-acids 536-812 with 3 surface mutations W659A, W777A, F794H); His (C); Avi (biotinylated) (C)
Sequence (O60674 536-812 W659A/W777A/F794H): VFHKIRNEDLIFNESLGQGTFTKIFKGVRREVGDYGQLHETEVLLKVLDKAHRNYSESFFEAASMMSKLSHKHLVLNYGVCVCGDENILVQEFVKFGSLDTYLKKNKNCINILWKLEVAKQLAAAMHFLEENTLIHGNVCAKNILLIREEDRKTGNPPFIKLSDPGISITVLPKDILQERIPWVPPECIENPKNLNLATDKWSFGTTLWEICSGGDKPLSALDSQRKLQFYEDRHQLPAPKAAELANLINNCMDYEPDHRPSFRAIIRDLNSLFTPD
Protocol text: JAK2 LanthaScreen JH2-WT Binding Assay
Setup conditions: JAK2 JH2-WT (0.145 nM), 50 nM Fluorescent JAK2-JH2 Tracer, 1 hour at 25° C.; read-out: JH2 BIND WT
Parameter measured: IC50

Supply reported IC50 belonging to this compound: Cn1ncc2cc(-c3c(-c4ccc(Oc5cccnc5)nc4)[nH]c4ncc5c(c34)n(C3CCCC3)c(=O)n5C)ccc21
10 to 100 nM

Others:
Fill in IC50 for record Cn1ncc2cc(-c3c(C4=CCCCC4)[nH]c4ncc5c(c34)n(C3CCCC3)c(=O)n5C)ccc21
≤ 10 nM

Tell me its IC50 given Cn1ncc2cc(-c3c(CCO)[nH]c4ncc5c(c34)n(C3CCCC3)c(=O)n5C)ccc21 as the entry.
100 to 500 nM

====

Quick reference: IC50 of the listed items.
Assay system: catalytic domain (JH1, amino acids 826-1132) of human JAK2 (Homo sapiens)
Construct: catalytic domain (JH1, amino acids 826-1132) of human JAK2; FLAG (N)
Sequence (O60674 826-1132): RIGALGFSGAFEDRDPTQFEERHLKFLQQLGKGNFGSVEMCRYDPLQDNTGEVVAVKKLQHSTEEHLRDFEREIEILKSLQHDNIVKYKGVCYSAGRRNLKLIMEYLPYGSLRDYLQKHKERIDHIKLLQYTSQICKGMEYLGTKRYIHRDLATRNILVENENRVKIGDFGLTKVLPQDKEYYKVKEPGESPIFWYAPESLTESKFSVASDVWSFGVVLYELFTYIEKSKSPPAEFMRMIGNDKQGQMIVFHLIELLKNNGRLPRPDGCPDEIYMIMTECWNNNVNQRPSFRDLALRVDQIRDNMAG
Protocol text: JAK2 LanthaScreen JH1 Binding Assay
Setup conditions: JAK2 JH1 (1.5 nM), 50 nM fluorescent JAK2-JH1 tracer, 2 hours at 25° C.; read-out: JH1 BIND

Specify IC50 for COc1ccc(-c2c(-c3ccc(CN4CCC(S(C)(=O)=O)CC4)cc3)[nH]c3ncc4c(c23)n(CC(C)C)c(=O)n4C)cc1 and stop.
100 to 500 nM

Give reported IC50 value for CC(C)n1c(=O)n(C)c2cnc3[nH]c(C4CC4)c(-c4ccc(C#N)cc4)c3c21
> 1000 nM

Quote IC50 reported for CC(=O)NC1CCC(n2c(=O)n(C)c3cnc4[nH]c(-c5cnn(CC(C)(C)O)c5)c(-c5ccc6c(cnn6C)c5)c4c32)CC1 (stereo not shown) please.
500 to 1000 nM

Complete the entry with IC50 for [2H]C([2H])([2H])n1ncc2cc(-c3c(-c4cnn5cccnc45)[nH]c4ncc5c(c34)n(C3CCOCC3)c(=O)n5C)ccc21
> 1000 nM

Name the recorded IC50 of the compound listed here: CC(C)n1c(=O)n(C)c2cnc3[nH]c(-c4cnn(CC(C)(C)O)c4)c(-c4ccc5c(c4)CCCO5)c3c21
100 to 500 nM

Further cases:
Kindly indicate its recorded IC50. Item: Cn1ncc2cc(-c3c(C(=O)NC4CC4)[nH]c4ncc5c(c34)n(C3CCCC3)c(=O)n5C)ccc21
> 1000 nM

Provide one value: measured IC50 of COc1ccc(-c2c(-c3ccc(CN4CCC(S(C)(=O)=O)CC4)cc3)[nH]c3ncc4c(c23)n(C)c(=O)n4C)cn1
> 1000 nM
